Molecular target: T1, 4H3185-bH
T1 chain: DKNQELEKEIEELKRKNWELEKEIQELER
Experiment: two-hybrid library CCNG1;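 further: natural log of median RNA to DNA barcode read ratio; higher means stronger binding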

binder	interaction score
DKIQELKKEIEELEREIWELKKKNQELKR [4H2576-bH]	0.137
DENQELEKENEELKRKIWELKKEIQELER [4H1257-bH]	-0.808
DKIQELKKENEELERKIWELKKEIQELER [4H2729-bH]	-3.12
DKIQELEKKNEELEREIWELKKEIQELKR [4H2442-bH]	-0.571
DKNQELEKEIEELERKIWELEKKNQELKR [4H3112-bH]	-0.575
DKNQELEKEIEELKRKNWELEKEIQELER [4H3185-bH]	0.0268
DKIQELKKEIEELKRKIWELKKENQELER [4H2667-bH]	0.789
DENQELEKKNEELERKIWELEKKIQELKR [4H1446-bH]	0.0116
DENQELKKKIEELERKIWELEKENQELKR [4H1828-bH]	-0.478
DKIQELKKEIEELERKNWELKKEIQELKR [4H2618-bH]	1.08
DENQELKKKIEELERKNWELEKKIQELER [4H1845-bH]	0.639
